# target: human 4-1BB expressed on cells (human, UniProt Q07011 24-255)
# Sequence (Q07011 24-255): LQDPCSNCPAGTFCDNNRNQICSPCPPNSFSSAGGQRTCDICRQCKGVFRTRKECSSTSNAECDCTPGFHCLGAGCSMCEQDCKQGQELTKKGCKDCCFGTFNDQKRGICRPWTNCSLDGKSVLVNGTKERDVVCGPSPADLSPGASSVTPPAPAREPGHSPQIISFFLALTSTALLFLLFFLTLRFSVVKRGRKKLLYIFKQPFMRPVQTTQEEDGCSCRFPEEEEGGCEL
# test.description: cell-based or functional assay
So I've got a bunch of binders here, and I need their EC50 (nM) in Jurkat-41BB NFκB reporter assay values.
# output: number + unit

Consider the reported EC50 (nM) in Jurkat-41BB NFκB reporter assay for these binders:
# binder, measurement
data = [
    ("VV02-1SP (1)-73 (Fc fusion, not shown: a dimerising Fc or GST; small tags and cut ends, Llama nanobody tested as fusion with human IgG1 Fc (N297A)) VHH: EVDLVESGGGLVQPGGSLRLSCAVSGFTFSNSAMSWARQAPGKEFEWVSSIYSDGKTYYVDSVKGRFTISRDNAKNTVYLQMSSLKPEDTAVYYCATWKTLRVGVWDESDYWGQGTQVTVSS", "0.01 nM"),
    ("VV02-1LP-238 (Fc fusion, not shown: a dimerising Fc or GST; small tags and cut ends, Llama nanobody tested as fusion with human IgG1 Fc (N297A)) VHH: QVQLVESGGGLVQAGGALRLSCAASGFTLDYSAIGWFRQAPGKEREGVLCISSSGDVTIYADSVKGRFTISRDNAKNTVYLQMNSLKPEDTAVYYCVAPRICSTYSSDDYWGQGTQVTVSS", "0.008 nM"),
]

Exam item: Fill in: EC50 (nM) in Jurkat-41BB NFκB reporter assay of VV02-1LP-263 (Fc fusion, Llama nanobody tested as fusion with human IgG1 Fc (N297A); not shown: Human IgG1 Fc fragment with N297A, fused at the C-terminus of the VHH) VHH: EVQLVESGGGLVQPGGSLRLSCAASGFTFSSSAMSWARQTPGKGFEWVSGIYSDGSTYYTDSVKDRFTISRDNAKNTVYLQMNSLKPEDTAVYYCATWGTLRFGVWAEYDHWGQGTQVTVSS is ___
Marked response: 0.017 nM
